Tested on: UniProt Q16819
Sequence (Q16819 66-653 limits assumed): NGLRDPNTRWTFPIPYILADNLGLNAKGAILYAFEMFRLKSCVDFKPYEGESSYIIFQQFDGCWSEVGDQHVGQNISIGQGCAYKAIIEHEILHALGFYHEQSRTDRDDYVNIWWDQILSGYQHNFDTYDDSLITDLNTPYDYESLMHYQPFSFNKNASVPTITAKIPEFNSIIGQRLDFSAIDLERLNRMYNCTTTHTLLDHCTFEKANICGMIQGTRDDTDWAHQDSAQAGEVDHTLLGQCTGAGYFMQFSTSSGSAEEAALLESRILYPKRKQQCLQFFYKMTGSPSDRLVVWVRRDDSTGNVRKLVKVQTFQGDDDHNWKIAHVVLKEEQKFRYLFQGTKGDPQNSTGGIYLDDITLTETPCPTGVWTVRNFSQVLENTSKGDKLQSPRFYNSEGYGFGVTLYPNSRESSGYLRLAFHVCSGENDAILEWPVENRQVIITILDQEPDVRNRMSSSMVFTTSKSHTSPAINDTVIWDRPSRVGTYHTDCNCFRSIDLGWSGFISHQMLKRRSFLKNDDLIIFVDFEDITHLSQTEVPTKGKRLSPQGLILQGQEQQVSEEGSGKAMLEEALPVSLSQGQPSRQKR
Assay: Meprin α HTS FRET assay, dose response
Assay type: biochemical
Condition details: read-out: IC50 Meprin α; selectivity testing; n = 3 Mean ± SD
pIC50: −log10 of the molar value.
Measured pIC50, listed per entry for reference.

N.N.[Cl][Pt][Cl] [Cisplatin, cisplatin] | < 4.00
Cc1nc(N=Nc2cc(S(=O)(=O)[O-])c3cc([N+](=O)[O-])cc(S(=O)(=O)[O-])c3c2)c(COP(=O)([O-])[O-])c(C=O)c1O.[Na+].[Na+].[Na+].[Na+] [PPNDS] | 4.17

--- query ---
Find the measured pIC50 of O=C(Nc1cc(C(=O)Nc2ccc(S(=O)(=O)O)cc2S(=O)(=O)O)cc(C(=O)Nc2ccc(S(=O)(=O)O)cc2S(=O)(=O)O)c1)Nc1cc(C(=O)Nc2ccc(S(=O)(=O)O)cc2S(=O)(=O)O)cc(C(=O)Nc2ccc(S(=O)(=O)O)cc2S(=O)(=O)O)c1 [NF449] with UniProt Q16819 as test system.
< 4.00
